The following variants are listed with their measured protein stability index values.
B1: FLOT1 (parent)
chain: QMAKKAEAFQLYQEAAQLDMLLEK

- Variants of: B1
- Experimental Details: protein stability index of a GFP-peptide fusion (GPS, HEK-293T) (PSI 1-6); higher = more stable;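 also: lentivirally expressed fusions sorted by FACS into six bins by GFP to DsRed ratio, PSI derived from sequencing read proportions per bin multiplied by bin number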
- Cond: c terminus: a fixed tail appended
Respond with the number and no other words.

Before answering, review these 9 worked examples.
A6C
1.53
Q1T
2.27
A16W
1.35
L11N
2.1
Q10A
2.07
L11Y
1.81
E14T
1.97
A6Y
1.53
A16M
2.79

Next up:
Data request: Endpoint output: protein stability index of `L22Y` . Value?
Data returned: 1.5
